Data origin, for the record: the Human Domainome abundance scans (Beltran et al. 2025)

B1: Serine/threonine-protein kinase A-Raf, residues 21 to 89; numbered along this chain, P10398 (parent)
chain: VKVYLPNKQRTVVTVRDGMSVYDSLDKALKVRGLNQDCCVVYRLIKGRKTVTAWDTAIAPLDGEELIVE

# Variants of: B1
# assayText: abundance fitness (aPCA) (normalised: wild type 0, dead -1); higher = more abundant; growth selection in yeast, the domain comes from the species named
# testSettings: Homo sapiens
Please mark met if the recorded abundance fitness is equal to or greater than -0.5, and not met if it falls below.

| mutation | answerLabel |
| --- | --- |
| V41F | not met |
| S24H | not met |
| R48D | met |
| P6H | not met |
| K46S | met |
| L34F | met |
| E64A | met |
| L61I | met |
| C39F | met |
| Q36S | met |
| I45D | met |
| A53P | met |
| G47M | not met |
| C39G | not met |
| D55A | met |
| R32Q | met |
| L25S | not met |
| K46D | met |
| T52S | not met |
| C38M | met |
| W54K | not met |
| L44P | not met |
| R48V | met |
| L25C | met |
| K46Q | met |
| S20Q | not met |
| S24T | met |
| A59W | met |
| A28L | met |
| R43L | not met |
| Q9G | met |
| N35H | met |
| A59M | met |
| Y22H | met |
| W54P | not met |
| E69M | not met |
| L29N | not met |
| V3A | not met |
| R10P | met |
| T14N | met |
| S20C | met |
| D26T | met |
| G33N | met |
| T14Y | met |
| N35Q | met |
| D17W | met |
| V13T | not met |
| N35A | met |
| E65S | met |
| Y4I | met |
| L61E | met |
| D55P | not met |
| D17K | met |
| A53Y | met |
| A28V | met |
| N7S | met |
| P6W | not met |
| V51E | met |
| A59P | not met |
| K2A | met |
| L44E | met |
| V31G | met |
| G33Y | not met |
| D17Y | met |
| K30G | met |
| G18T | met |
| G18K | met |
| V40K | met |
| K30T | met |
| E65W | not met |
| D23M | met |
| A53E | met |
| W54S | not met |
| V21R | not met |
| K46G | met |
| V13G | not met |
| T50E | not met |
| T14K | met |
| V13I | met |
| Y22V | met |
| D17P | met |
| R16F | met |
| R10C | met |
| L44R | met |
| T56K | met |
| Y42V | not met |
| D23F | met |
| A59Y | met |
| A59F | met |
| Y22A | met |
| G33L | not met |
